Source: ChEMBL document CHEMBL5518171

# TEST SYSTEM: Acetylcholinesterase (Electrophorus electricus, UniProt O42275)
# Sequence (O42275 whole entry): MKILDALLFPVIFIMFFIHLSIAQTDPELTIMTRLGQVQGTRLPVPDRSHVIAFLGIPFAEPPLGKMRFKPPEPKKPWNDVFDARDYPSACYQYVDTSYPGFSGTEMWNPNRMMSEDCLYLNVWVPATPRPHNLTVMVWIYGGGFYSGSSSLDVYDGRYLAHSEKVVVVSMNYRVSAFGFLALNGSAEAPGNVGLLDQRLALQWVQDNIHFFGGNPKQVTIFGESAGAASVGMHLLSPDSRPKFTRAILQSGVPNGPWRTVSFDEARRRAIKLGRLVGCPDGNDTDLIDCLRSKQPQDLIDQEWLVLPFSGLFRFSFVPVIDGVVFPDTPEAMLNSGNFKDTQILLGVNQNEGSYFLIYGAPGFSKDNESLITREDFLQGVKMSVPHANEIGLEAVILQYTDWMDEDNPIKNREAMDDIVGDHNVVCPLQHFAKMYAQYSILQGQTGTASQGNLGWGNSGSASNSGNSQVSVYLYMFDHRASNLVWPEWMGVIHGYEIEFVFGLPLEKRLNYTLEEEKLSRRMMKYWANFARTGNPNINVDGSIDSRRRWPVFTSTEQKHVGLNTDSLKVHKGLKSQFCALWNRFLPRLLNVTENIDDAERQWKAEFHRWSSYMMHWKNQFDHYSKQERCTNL
READOUT KIND: IC50 (nM)
Numbers only, in nM.

# input Given the entry "COc1cc(/C=C/C(=O)OCCCCCN(C)Cc2cccc(OC(=O)N(C)C)c2)ccc1O" , what IC50 was observed with Acetylcholinesterase (Electrophorus electricus, UniProt O42275)?
# output 19.7

###

# TEST SYSTEM: Cholinesterase (Equus caballus)
# Sequence (P81908 whole entry): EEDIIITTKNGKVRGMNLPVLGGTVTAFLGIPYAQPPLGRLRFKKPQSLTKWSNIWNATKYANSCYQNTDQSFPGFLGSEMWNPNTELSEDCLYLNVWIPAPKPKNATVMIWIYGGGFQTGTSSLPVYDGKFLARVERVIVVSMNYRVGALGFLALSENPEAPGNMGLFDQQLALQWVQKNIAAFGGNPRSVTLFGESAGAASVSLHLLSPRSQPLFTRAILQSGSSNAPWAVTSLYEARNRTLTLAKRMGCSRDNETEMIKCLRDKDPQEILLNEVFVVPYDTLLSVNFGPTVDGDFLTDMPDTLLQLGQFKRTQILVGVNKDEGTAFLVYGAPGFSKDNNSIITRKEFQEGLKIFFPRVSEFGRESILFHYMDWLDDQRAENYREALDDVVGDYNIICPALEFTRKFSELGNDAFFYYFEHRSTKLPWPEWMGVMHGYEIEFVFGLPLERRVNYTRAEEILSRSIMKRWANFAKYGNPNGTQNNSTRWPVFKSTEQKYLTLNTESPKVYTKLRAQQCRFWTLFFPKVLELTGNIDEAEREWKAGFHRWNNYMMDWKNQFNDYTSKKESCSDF
READOUT KIND: IC50 (nM)
Answers are plain numbers, in nM.

# input Sample "COc1cc(/C=C/C(=O)OCCCCCN(C)Cc2cccc(OC(=O)N(C)C)c2)ccc1O" — what was its IC50?
# output 590
